Answer each item with its documented condensed nuclei.
# assay-name: HT29 colon tumor cell growth inhibition, primary screen, imaging, high content imaging, 24 h, CellTiter-Glo (AID 770);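 also: share of cells whose nuclear area falls below control median minus 1.5 SD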
# condition-details: HT29 cell number by imaging, measured here: percent cells with condensed nuclei, at 10 µM, stronger effect = higher value
Among all 3,300 compounds or so, fewer than 10 were called active. Only a sample is shown.
Answers are plain numbers, in %.

CSc1nncc(=O)[nH]1 :: 1.83

Give measured condensed nuclei for every item shown.
1. COc1ccc(C2Nc3ccccc3C(=O)N2Cc2ccco2)cc1CN1C(=O)c2ccccc2C1=O (stereo not given)
2. CCN(CC)C(=O)COn1c(SCC(=O)N(CC)CC)nc2ccccc2c1=O
3. COC(=O)c1ccc(C2/C(=C(/O)c3ccc(OC)cc3)C(=O)C(=O)N2c2cc(C)on2)cc1 (stereo not given)

OUTPUT:
1: 3.89; 2: 5.68; 3: 3.44

Give measured condensed nuclei for every item shown.
1. CNC(=O)CC(C(=O)O)c1ccc(OC(C)C)cc1 (stereo not given)
2. CC(C)CSc1nc(N2CCOCC2)c2c(c1C#N)CC(C)(C)SC2
3. CCN(CC)c1ccc2cc(C(=O)Nc3ccccn3)c(=O)oc2c1
4. Cn1c(=O)c2c(nc(Br)n2CCSc2ncccn2)n(C)c1=O

OUTPUT:
1. 2.97
2. 2.93
3. 2.75
4. 1.48
